Organism: Rattus norvegicus
ASSAY_NAME: Inhibition of rat intestinal alpha-glucosidase activity at 50 ug
Reported values of inhibition for individual entries
PROPERTY_LABEL: inhibition

1) CC(=O)NC(CC(=O)c1ccc(F)cc1)c1ccc(O)cc1 (configuration not stated) | 60.1%
2) CC(=O)NC(CC(=O)c1ccc(F)cc1)c1ccc(F)cc1 (configuration not stated) | 55.1%
3) CC(=O)NC(CC(=O)c1ccc(Br)cc1)c1ccc(F)cc1 (configuration not stated) | 2.7%
4) CC(=O)NC(CC(=O)c1ccccc1)c1ccc([N+](=O)[O-])cc1 (configuration not stated) | 72.2%
5) CC(=O)NC(CC(=O)c1ccc([N+](=O)[O-])cc1)c1ccc(C)cc1 (configuration not stated) | 85%
6) CC(=O)NC(CC(=O)c1ccc([N+](=O)[O-])cc1)c1ccc([N+](=O)[O-])cc1 (configuration not stated) | 52.7%
7) CC(=O)NC(CC(=O)c1ccc(Br)cc1)c1ccc(C)cc1 (configuration not stated) | 95.1%

###

ASSAY_NAME: Inhibition of rat intestinal alpha-glucosidase activity
pIC50: −log10 of the molar value.
Reported values of pIC50 for individual entries
PROPERTY_LABEL: pIC50

1. CC(=O)NC(CC(=O)c1ccc(Br)cc1)c1ccc(C)cc1 (centres undefined) | 5.26
2. CC(=O)NC(CC(=O)c1ccc(F)cc1)c1ccc(O)cc1 (centres undefined) | 4.14
3. CC(=O)NC(CC(=O)c1ccc([N+](=O)[O-])cc1)c1ccc(C)cc1 (centres undefined) | 5.04
4. CC(=O)NC(CC(=O)c1ccccc1)c1ccc([N+](=O)[O-])cc1 (centres undefined) | 4.59

Data provenance is ChEMBL document CHEMBL1157494.
